# tested on: CXCR4 (Homo sapiens, UniProt P61073)
# Sequence (P61073 whole entry): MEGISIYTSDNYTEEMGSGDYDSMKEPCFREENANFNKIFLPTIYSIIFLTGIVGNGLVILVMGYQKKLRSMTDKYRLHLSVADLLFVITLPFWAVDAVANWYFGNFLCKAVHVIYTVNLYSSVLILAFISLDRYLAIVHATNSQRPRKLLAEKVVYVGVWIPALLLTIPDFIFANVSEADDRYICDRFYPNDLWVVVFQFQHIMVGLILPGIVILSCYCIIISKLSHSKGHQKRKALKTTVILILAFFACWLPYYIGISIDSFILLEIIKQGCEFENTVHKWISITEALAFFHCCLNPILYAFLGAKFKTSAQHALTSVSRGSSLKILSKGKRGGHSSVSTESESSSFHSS
# method summary: Intracellular CXCL-12-induced calcium mobilization assay (FLIPR), U87.CXCR4 cells
# Format: cell-based
# Set-up: expressed in transfected cells; host or cells: U87 (U87.CXCR4)
# reported conditions: CXCL-12 25-50 ng/ml, read-out: IC50 CXCL-12 Ca2+ flux U87.CXCR4+
pIC50: −log10 of the molar value.
readout kind: pIC50

molecular string | pIC50
Cc1cccnc1[C@H]1CCC[C@@H](c2ncccc2C)N1CCCCNC(=O)[C@@H]1CC[C@@H](Nc2ncnc3[nH]cc(C(=O)c4ccc(Oc5ccccc5)cc4Cl)c23)CO1 | 6.00 to 7.00
Cc1cccnc1[C@H]1CCC[C@@H](c2ncccc2C)N1CCn1cc(-c2ccc(Oc3ccccc3)cc2)c2c(N)ncnc21 | < 5.60
Cc1cc(-c2ncnc3[nH]c(C(=O)NCCCN4[C@@H](c5ncccc5C)CCC[C@H]4c4ncccc4C)cc23)ccc1CNC(=O)c1ccc(C(F)(F)F)cc1 | < 5.60

Now consider the entry below.
Param readout = pIC50; param system = CXCR4 (Homo sapiens, UniProt P61073); param query = Cc1cccnc1[C@H]1CCC[C@@H](c2ncccc2C)N1CCNC1CN(C(=O)c2ccc(-c3cc4c(-c5cccc(NC(=O)c6ccc(C(C)C)cc6)c5C)ncnc4[nH]3)cc2)C1 ; response: value
7.00 to 9.00
